Target: menin-MLL1_(MBM-LBM) complex (human)
Experiment: ITC
endpoint: Kd (µM)
Numbers only; they are read as µM.

Prompt: I would be grateful if you could share the reported Kd for LEDGFIBD (IBD domain of LEDGF) (domain or fragment) .
Completion: 0.47
